Target: T1, 4H337-AA
T1 chain: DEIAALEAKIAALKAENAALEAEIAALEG
Assay: two-hybrid library CCmax;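 also: natural log of median RNA to DNA barcode read ratio; higher means stronger binding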
Conditions: mean of both orientations
reported-metric: interaction score

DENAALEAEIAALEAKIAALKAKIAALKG [4H1070-AA]: 0.472
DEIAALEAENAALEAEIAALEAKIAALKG [4H134-AA]: 0.273
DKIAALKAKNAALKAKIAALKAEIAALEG [4H3049-AA]: 1.59
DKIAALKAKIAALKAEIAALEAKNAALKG [4H2888-AA]: 1.21
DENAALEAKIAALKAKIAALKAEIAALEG [4H1385-AA]: 0.173
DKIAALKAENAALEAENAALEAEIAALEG [4H2705-AA]: -0.896

P = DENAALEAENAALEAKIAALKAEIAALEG [4H1193-AA]
Q = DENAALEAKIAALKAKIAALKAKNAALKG [4H1392-AA]
R = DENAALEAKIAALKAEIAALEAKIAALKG [4H1350-AA]
S = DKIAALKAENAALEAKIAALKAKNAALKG [4H2736-AA]
T = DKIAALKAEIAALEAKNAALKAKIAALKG [4H2622-AA]
Order these by interaction score, descending, and give the full ranking. Respond with the label ranking, as requested.
T, R, S, Q, P
(T: 2.35, R: 1.52, S: -0.315, Q: -0.783, P: -1.69)
